B1: library; numbered along this chain (parent)
chain: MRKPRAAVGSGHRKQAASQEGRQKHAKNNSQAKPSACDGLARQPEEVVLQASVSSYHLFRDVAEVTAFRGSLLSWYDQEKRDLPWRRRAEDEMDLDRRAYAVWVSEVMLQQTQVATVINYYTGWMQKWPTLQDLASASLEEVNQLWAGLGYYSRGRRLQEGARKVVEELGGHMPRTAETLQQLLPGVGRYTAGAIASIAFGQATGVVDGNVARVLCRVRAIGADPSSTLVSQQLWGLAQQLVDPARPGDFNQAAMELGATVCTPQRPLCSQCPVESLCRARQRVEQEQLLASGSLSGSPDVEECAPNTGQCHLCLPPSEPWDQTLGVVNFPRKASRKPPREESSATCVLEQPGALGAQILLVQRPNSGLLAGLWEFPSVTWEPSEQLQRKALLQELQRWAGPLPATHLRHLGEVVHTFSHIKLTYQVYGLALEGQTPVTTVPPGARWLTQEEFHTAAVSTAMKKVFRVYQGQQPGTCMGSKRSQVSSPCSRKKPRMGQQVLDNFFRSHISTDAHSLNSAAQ

Variants of: B1
Assay: 8OG:A repair function score (normalized; synonymous = 0, nonsense = -1) (normalized log-likelihood score); higher = more repair activity (WT-like);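 further: cells sorted at 72 h after reporter transfection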
Settings: with 8OG:A DNA repair reporter (GFP) in HEK-293 MUTYH KO cells
Answer each item with its documented 8OG:A repair function score.
Lab note: write the figure by itself, no unit.

Look at this variant and give its reported 8OG:A repair function score. T476S
0.00281

Now the same for T436H
0.323

Same question for R495W please.
0.0272

Also T511N ?
-0.0682

Same question, V114A this time
0.0344

Now this one: Q144K
-7.85e-05

Can you check K464D next?
-0.393

Now the same for L73M
-0.0108

Then what about the variant L109N ?
-0.45

Next variant: D224N
-0.918

Also check G188M
-0.929

Subsequent entry: H416L
-0.319

Now give it for L361I too.
-0.107

What do we get for R42K ?
0.0776

Again, but for S138I
-0.286

Here is the next variant: E106K
-1.45

Note, next up: S507F
-0.0917

Also need V415G , thanks.
-0.172

Okay, and W124R ?
-1.05

Here is the next variant: N366S
0.0203

// next record S518L
-0.0274

Please answer likewise for T112Y
-1.19

Data provenance is the supplement of paper PMC11908140.
